# Measurement target: recombinant human PKD1 (Homo sapiens)
# Construct: His; purchased Millipore (Billerica, MA)
# Sequence (Q15139 1-912): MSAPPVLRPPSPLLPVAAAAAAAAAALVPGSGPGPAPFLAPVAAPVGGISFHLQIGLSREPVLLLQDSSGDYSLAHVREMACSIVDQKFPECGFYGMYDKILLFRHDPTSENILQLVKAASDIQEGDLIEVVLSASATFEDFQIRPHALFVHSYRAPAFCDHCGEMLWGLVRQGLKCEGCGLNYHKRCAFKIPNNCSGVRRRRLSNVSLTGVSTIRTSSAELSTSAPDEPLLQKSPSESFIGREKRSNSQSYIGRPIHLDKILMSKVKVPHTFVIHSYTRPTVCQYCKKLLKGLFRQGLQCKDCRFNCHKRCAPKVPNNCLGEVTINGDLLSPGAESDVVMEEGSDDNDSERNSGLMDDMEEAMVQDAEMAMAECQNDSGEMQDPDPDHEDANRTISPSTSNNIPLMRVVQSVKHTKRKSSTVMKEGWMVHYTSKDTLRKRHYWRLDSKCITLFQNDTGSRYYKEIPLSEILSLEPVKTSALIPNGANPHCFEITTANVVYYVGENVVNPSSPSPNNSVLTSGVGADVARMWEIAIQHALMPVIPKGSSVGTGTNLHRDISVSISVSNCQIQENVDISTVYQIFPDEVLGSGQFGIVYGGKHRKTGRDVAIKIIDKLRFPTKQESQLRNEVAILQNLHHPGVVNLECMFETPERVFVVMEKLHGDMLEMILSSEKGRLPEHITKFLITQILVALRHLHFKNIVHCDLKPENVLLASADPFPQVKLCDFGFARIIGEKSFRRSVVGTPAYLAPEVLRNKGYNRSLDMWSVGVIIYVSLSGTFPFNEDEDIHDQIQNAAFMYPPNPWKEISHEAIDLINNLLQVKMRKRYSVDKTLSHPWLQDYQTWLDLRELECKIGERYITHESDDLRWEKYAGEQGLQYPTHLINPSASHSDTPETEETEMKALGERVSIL
# Test: In vitro radiometric PKD1 kinase assay
# Type: biochemical
# Experimental setup: radiometric PKD1 kinase assay; mean ± range or SD of 2–4 independent experiments; read-out: In vitro PKD1 IC50

Compound	IC50
CCC1=NNc2cccc3c(OC)ccc1c23 [CID 2876479]	2200 nM
CC1Cc2ccccc2N1c1ncnc(N)c1[N+](=O)[O-] (centres unmarked) [CID 2958734]	6100 nM
CCN1/C(=C/C(C)=O)Sc2ccc(OC)cc21 [CID 1893668, reference compound]	1700 nM
O=C(Nc1ccc(CN2CCOCC2)cc1)c1ccc(-c2cccc(Cl)c2)o1 [CID 2011756]	3200 nM
O=C1c2ccccc2-c2onc3ccc(NCCCn4ccnc4)c1c23 [CID 663844]	4800 nM
NC(N)=NC(=O)c1nc(Cl)c(N)nc1N [CID 16230, amiloride chloride, reference compound]	2100 nM
Clc1cncc(Cl)c1NNc1ccncc1 [CID 4438738]	3300 nM
CC1(C)Oc2ccc3ccc(=O)oc3c2-c2cn[nH]c21 [CID 646236]	1100 nM

###

Each record here notes measured EC50.
# Measurement target: endogenous PKD1 (Ser916 phosphorylation) in LNCaP prostate cancer cells (Homo sapiens)
# Construct: phosphorylation of endogenously expressed PKD1 Ser^916; endogenous in cells; host or cells: LNCaP prostate cancer cells
# Test: Western blot of PMA-induced phospho-Ser916-PKD1 in LNCaP cells
# Assay type: cell-based
# Experimental setup: LNCaP cells, PMA stimulation, n = 3; read-out: Cellular EC50 (phospho-Ser916-PKD1)
# Method: Briefly, prostate cancer cells (LNCaP) were exposed to test compounds. Cells were lysed in buffer (200 mM Tris-HCl, pH 7.4, 100 µM 4-(2-aminoethyl) benzenesulfonyl fluoride, 1 mM EGTA, and 1% Triton X-100) and cell lysates were subjected to SDS-PAGE then electrotransferred to nitrocellulose membranes. Membranes were blocked with 5% nonfat milk in Tris-buffered saline. […]

Molecule	Unit label	EC50
O=C(Nc1ccc(CN2CCOCC2)cc1)c1ccc(-c2cccc(Cl)c2)o1	µM	10
CCN1/C(=C/C(C)=O)Sc2ccc(OC)cc21 [CID 1893668, reference compound]	µM	52

###

# Measurement target: PKD2 (Homo sapiens)
# Sequence (Q9BZL6 whole entry): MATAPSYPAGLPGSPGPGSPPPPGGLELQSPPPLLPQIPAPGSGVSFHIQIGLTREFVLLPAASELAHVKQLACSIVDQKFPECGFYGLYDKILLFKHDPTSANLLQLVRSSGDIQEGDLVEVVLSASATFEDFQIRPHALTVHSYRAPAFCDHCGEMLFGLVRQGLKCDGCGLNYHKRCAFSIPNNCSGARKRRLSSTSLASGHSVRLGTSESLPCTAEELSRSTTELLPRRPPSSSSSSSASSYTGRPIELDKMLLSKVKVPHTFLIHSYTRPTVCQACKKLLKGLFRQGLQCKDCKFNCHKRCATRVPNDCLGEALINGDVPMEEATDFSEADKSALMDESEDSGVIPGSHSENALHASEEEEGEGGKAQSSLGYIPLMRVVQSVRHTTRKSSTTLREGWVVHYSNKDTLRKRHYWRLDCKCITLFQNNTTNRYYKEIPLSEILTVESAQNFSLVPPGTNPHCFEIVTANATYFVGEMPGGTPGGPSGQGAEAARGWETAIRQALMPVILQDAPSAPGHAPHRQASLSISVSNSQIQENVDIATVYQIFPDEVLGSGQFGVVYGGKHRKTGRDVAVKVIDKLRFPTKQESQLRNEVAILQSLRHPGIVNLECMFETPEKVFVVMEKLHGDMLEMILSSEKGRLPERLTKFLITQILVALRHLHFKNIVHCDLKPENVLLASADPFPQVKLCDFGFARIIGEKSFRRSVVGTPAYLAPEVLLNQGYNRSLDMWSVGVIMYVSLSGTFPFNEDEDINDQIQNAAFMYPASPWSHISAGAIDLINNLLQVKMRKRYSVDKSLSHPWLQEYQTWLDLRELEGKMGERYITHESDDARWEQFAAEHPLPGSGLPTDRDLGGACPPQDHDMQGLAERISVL
Endpoint: IC50 (nM)

Compound	Endpoint	Unit label	Meas value
O=C(Nc1ccc(CN2CCOCC2)cc1)c1ccc(-c2cccc(Cl)c2)o1 [CID 2011756]	IC50	nM	600

###

# Measurement target: endogenous PKD1 (Ser916 phosphorylation) in LNCaP prostate cancer cells (Homo sapiens)
# Construct: phosphorylation of endogenously expressed PKD1 Ser^916; endogenous in cells; host or cells: LNCaP prostate cancer cells
# Test: Western blot of PMA-induced phospho-Ser916-PKD1 in LNCaP cells
# Format: cell-based
# Experimental setup: LNCaP cells, 50 µM compound 45 min, then PMA 10 nM 20 min
Endpoint: Inhibition of phosphorylation of Ser916-PKD1 (in words)

Molecule	Meas value
CC1Cc2ccccc2N1c1ncnc(N)c1[N+](=O)[O-] (stereo not drawn) [CID 2958734]	little or no inhibition
NC(N)=NC(=O)c1nc(Cl)c(N)nc1N [CID 16230, amiloride chloride, reference compound]	little or no inhibition
O=C1c2ccccc2-c2onc3ccc(NCCCn4ccnc4)c1c23 [CID 663844]	little or no inhibition
CCC1=NNc2cccc3c(OC)ccc1c23 [CID 2876479]	some cellular inhibition
Nc1nc2ccc([N+](=O)[O-])c(N)c2s1 [CID 5086667]	some cellular inhibition
